- experimental.system: human c-Met (HGFR), full length, on the cell surface (human, UniProt P08581 25-1390)
- Sequence (P08581 25-1390 limits assumed): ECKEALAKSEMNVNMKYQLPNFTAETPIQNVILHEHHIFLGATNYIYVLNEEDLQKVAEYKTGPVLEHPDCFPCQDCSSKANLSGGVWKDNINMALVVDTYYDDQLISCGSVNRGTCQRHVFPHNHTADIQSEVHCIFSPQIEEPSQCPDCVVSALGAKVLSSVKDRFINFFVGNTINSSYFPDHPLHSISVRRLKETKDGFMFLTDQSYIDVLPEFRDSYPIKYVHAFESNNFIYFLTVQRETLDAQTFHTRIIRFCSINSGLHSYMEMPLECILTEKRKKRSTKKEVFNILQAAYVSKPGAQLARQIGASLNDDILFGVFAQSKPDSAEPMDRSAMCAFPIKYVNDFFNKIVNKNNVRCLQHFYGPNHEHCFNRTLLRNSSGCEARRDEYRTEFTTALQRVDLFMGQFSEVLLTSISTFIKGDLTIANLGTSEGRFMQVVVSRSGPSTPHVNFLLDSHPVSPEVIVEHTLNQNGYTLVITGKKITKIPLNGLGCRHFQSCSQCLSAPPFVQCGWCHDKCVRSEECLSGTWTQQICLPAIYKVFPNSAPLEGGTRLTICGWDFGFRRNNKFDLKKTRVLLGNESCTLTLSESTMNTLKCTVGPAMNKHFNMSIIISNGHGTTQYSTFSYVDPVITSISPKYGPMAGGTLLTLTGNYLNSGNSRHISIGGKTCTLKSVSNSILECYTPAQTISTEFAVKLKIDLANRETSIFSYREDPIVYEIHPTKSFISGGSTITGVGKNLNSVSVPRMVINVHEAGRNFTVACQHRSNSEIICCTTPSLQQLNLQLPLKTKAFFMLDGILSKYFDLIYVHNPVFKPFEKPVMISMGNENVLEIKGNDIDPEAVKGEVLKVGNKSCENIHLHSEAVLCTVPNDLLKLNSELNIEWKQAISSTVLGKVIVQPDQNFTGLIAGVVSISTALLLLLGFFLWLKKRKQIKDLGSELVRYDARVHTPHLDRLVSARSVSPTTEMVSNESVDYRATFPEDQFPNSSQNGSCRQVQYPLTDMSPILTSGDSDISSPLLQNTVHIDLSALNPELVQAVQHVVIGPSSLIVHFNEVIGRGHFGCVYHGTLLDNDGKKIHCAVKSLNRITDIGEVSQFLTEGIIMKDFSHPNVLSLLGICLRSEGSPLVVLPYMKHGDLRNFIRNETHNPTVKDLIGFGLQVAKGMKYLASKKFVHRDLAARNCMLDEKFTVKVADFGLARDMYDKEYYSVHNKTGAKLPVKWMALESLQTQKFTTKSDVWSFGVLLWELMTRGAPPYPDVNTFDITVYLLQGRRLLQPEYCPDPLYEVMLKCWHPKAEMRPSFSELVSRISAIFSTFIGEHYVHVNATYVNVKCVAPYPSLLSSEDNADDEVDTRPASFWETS
- test.summary: cell-based or functional assay
measured.endpoint: Efficacy (%), in vitro cytotoxicity, PC-3, -HGF
Mention the unit after the number when you answer.

Query block: Using the record for ADC3e (antibody, human IgG1, kappa, V domains shown, vc-seco-DUBA linker-drug on the engineered cysteine at HC position 41 (Kabat); DAR 1.9) VH: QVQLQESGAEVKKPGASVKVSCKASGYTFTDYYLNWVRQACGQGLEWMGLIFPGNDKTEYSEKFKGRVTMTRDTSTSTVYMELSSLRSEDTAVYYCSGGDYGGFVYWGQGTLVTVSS VL: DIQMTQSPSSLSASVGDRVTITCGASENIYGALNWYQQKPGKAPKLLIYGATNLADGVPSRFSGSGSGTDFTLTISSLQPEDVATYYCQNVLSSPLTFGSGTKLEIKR , report its Efficacy (%), in vitro cytotoxicity, PC-3, -HGF.
Result block: 74%

Query block: Can you share its Efficacy (%), in vitro cytotoxicity, PC-3, -HGF? I mean this binder: ADC3a (antibody, human IgG1, kappa, V domains shown, vc-seco-DUBA linker-drug on the engineered cysteine at HC position 41 (Kabat); DAR 1.9) VH: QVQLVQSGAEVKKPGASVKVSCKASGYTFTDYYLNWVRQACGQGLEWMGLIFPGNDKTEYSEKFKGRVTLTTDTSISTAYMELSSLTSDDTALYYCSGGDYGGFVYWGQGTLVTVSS VL: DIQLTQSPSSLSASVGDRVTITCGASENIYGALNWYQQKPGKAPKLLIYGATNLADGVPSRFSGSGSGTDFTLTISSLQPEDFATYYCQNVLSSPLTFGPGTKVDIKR
Result block: 73%

Query block: Any idea what Efficacy (%), in vitro cytotoxicity, PC-3, -HGF was measured for ADC3b (antibody, human IgG1, kappa, V domains shown, vc-seco-DUBA linker-drug on the engineered cysteine at HC position 41 (Kabat); DAR 1.9, Antibody-drug conjugate of mAb3b; also called mAb3b-vc-seco-DUBA) VH: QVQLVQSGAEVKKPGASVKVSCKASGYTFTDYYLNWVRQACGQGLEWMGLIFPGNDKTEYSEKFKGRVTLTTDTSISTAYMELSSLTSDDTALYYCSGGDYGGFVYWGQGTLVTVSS VL: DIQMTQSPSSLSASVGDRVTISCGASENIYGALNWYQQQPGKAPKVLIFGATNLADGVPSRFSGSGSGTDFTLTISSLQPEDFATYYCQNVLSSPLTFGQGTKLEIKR ?
Result block: 75%

Query block: Query (binder): ADC1a (antibody, human IgG1, kappa, V domains shown, vc-seco-DUBA linker-drug on the engineered cysteine at HC position 41 (Kabat); DAR 1.7) VH: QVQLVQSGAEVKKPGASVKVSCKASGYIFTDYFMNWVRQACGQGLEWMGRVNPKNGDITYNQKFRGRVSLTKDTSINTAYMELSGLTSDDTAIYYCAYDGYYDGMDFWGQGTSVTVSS VL: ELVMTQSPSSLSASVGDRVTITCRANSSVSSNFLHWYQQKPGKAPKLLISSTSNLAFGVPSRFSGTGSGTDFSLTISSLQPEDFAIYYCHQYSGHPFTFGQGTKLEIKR ; field requested: Efficacy (%), in vitro cytotoxicity, PC-3, -HGF
Result block: 78%

Query block: Would you kindly share the measured Efficacy (%), in vitro cytotoxicity, PC-3, -HGF for ADC2 (antibody, human IgG1, kappa, V domains shown, vc-seco-DUBA linker-drug on the engineered cysteine at HC position 41 (Kabat); DAR 1.7) VH: QVQLQQSGAELVRPGASVKLSCKASGYVFPDYEMHWVKQTCVHGLEWIGAFDPETGDTTYNQNFKGKATLTADKASSTAYMDLRSLTSGDSAVYYCARDYKYLYYYAMDNWGQGTSVTVSS VL: QIVLTQSPAIMSASLGERVTMTCTASSSITSSYLHWYQQKPGSSPKLWIYSTTNLASGVPGRFSGSGSGTSFSLTISSMEAEDAATYYCHQYRRSPLTFGAGTKLELKR ?
Result block: 69%

Query block: Consider the binder shown here: ADC2c (antibody, human IgG1, kappa, V domains shown, vc-seco-DUBA linker-drug on the engineered cysteine at HC position 41 (Kabat); DAR 1.7) VH: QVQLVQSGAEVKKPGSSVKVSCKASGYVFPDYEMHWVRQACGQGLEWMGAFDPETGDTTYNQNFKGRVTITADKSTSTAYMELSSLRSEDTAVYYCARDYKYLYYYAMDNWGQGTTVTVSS VL: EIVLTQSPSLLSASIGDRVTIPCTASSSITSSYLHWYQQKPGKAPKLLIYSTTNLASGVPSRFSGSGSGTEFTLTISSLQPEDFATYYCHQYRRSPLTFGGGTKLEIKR What is its recorded Efficacy (%), in vitro cytotoxicity, PC-3, -HGF?
Result block: 76%

Query block: Given the binder ADC3d (antibody, human IgG1, kappa, V domains shown, vc-seco-DUBA linker-drug on the engineered cysteine at HC position 41 (Kabat); DAR 1.8) VH: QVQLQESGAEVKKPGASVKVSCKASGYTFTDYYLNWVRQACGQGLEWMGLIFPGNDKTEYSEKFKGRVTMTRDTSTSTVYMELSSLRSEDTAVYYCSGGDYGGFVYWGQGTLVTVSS VL: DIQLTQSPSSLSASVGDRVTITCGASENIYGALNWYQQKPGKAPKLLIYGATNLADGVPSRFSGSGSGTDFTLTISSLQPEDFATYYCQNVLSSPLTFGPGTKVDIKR , what is its reported Efficacy (%), in vitro cytotoxicity, PC-3, -HGF?
Result block: 74%

Query block: # lookup: Efficacy (%), in vitro cytotoxicity, PC-3, -HGF of ADC3c (antibody, human IgG1, kappa, V domains shown, vc-seco-DUBA linker-drug on the engineered cysteine at HC position 41 (Kabat); DAR 1.8) VH: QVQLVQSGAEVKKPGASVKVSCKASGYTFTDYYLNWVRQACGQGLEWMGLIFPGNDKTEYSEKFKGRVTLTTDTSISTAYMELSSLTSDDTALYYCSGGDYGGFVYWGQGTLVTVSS VL: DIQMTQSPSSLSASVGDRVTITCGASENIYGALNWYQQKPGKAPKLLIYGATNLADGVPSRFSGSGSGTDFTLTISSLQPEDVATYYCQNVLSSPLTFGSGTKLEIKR
Result block: 73%

Query block: Entry ADC2a (antibody, human IgG1, kappa, V domains shown, vc-seco-DUBA linker-drug on the engineered cysteine at HC position 41 (Kabat); DAR 1.7) VH: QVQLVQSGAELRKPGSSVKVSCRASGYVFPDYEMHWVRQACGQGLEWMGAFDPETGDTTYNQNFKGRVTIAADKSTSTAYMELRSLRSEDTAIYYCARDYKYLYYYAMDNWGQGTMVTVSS VL: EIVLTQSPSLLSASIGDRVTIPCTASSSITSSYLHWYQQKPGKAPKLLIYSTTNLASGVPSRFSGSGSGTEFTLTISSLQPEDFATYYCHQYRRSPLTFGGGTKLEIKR : reported Efficacy (%), in vitro cytotoxicity, PC-3, -HGF = ?
Result block: 77%

Query block: Efficacy (%), in vitro cytotoxicity, PC-3, -HGF lookup needed for ADC1 (antibody, human IgG1, kappa, V domains shown, vc-seco-DUBA linker-drug on the engineered cysteine at HC position 41 (Kabat); DAR 1.5) VH: EVQLQQSGPELLKPGASVKMSCKASGYIFTDYFMNWVKQSCGKSLEWIGRVNPKNGDITYNQKFRGKATLTVDKSLTTAYMQLNSLTSEDSAVYFCAYDGYYDGMDFWGQGTSVTVSS VL: ENVLTQSPAIMSASPGEKVTMTCRANSSVSSNFLHWYQQKSGASPKLWISSTSNLAFGVPPRFSGSGSGTSYSLTISSVEAEDAATYYCHQYSGHPFTFGSGTKLEIKR , thanks.
Result block: 41%

Query block: What value of measured Efficacy (%), in vitro cytotoxicity, PC-3, -HGF is listed for ADC2b (antibody, human IgG1, kappa, V domains shown, vc-seco-DUBA linker-drug on the engineered cysteine at HC position 41 (Kabat); DAR 1.7) VH: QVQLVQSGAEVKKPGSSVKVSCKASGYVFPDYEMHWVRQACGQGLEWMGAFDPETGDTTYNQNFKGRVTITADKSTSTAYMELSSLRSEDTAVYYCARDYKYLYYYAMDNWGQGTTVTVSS VL: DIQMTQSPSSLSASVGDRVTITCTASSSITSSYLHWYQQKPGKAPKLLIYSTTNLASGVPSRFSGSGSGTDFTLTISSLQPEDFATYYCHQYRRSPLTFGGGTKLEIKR ?
Result block: 77%
